method notes: Toxicity in po dosed C57BL6 mouse assessed as lethality measured daily over 14 days of treatment
Assay type: organism-based
measurement conditions: C57BL6, mouse, in vivo
value type: LD50 at 336 h

Quick one: LD50 at 336 h of "CCCn1c(C)cnc1C1CN(C(=O)c2ccc([N+](=O)[O-])o2)C1" ? 900 mg/kg
